Where do the numbers come from? From paper PMC4072508.

Target: T1, Mcl-1, Q07820
T1 chain: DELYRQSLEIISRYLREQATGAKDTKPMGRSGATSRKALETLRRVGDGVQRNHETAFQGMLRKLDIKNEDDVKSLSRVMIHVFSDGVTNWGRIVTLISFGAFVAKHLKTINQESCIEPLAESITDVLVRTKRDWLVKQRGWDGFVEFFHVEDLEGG
Assay: peptide SPOT array, c-Myc-tagged receptor at 1 uM or 100 nM, anti-c-Myc-Cy3
Kind request: treat 0.04 as inclusive, so SPOT signal as a fraction of Bim BH3's signal on the same receptor and array at 0.04 or higher is T, anything lower is F.

Given the entry DLLGMVVVDELHMLLDSHRGYLLELL [POLQ] , answer whether its SPOT signal as a fraction of Bim BH3's signal on the same receptor and array meets or surpasses 0.04. F

Next: PKKKMTLSEIDQWICDNFPYYREAGS [FOXJ3] T

Next: ITMVPQASEILAKMSELVHRRLRHGS [ZFPM2] T

Next: EAVTDGLKRALRSFLNALGNCILDKD [RAD52] T

Next: LMARPAVALHFQSILDGFKEAVRYVL [SOS2] T

Next: SHALICISHWDLGIGDRHLNNFMVAM [PRKDC] F
